# protocol_text: rapamycin-like changes in RPL19A-GFP expression – cell-based, S. cerevisiae, multiplex flow cytometry, primary screen (AID 1862);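 also: lower values mimic rapamycin by blocking the RPL19A rise seen in DMSO cells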
# measurement_conditions: S. cerevisiae RPL19A-GFP strain, flow cytometry fluorescence, 3 h; at 10 µM; hits give low values
Inconclusive results are not listed.
assay_metric: percent of DMSO control GFP (%)
Only the number, expressed in %, is required.

Example compounds with recorded percent of DMSO control GFP:
COc1cccc(OCC(O)CO)c1 (stereo not given) ... 97.6
CC1(C)CC(CNCCC(c2ccc(F)cc2)c2ccco2)CCO1 (stereo not given) ... 96.1
Cc1ccc2[nH]c3c(=O)n(CCc4cnc[nH]4)cnc3c2c1 ... 96.4
COc1ccc2nc(S(=O)Cc3ncc(C)c(OC)c3C)[nH]c2c1 (stereo not given) ... 107
O[C@H]1COC2C1OC[C@@H]2O (stereo not given in full) ... 99
CC(=O)OCC(=O)[C@@]1(O)[C@H](C)C[C@H]2[C@@H]3CCC4=CC(=O)C=C[C@]4(C)[C@@]3(F)[C@@H](O)C[C@@]21C ... 97.2
CC(=O)N(C(C)=O)c1nc2nc(C)cc(C)n2n1 ... 94.6
COc1ccc(NS(=O)(=O)c2ccc(N)cc2)nn1 ... 97.3
COc1ccc(/C=C/C(=O)c2cc3cccc(OC)c3oc2=O)cc1 ... 103
C[C@]12CC[C@@H]3c4ccc(O)cc4[C@@H](O)C[C@H]3[C@@H]1CC[C@@H]2O ... 103

Prompt: Dear colleague, please send me the reported percent of DMSO control GFP for `O=C(O)c1ccccc1Nc1cccc(C(F)(F)F)c1` when you can.
Completion: 95

Prompt: Please report the measured percent of DMSO control GFP for Cc1ccc2nc(NC3=NC(CC(=O)O)C(=O)N3)nc(C)c2c1 (stereo not given)
Completion: 105

Prompt: Answer with the recorded percent of DMSO control GFP of CC(C)COCC(CN(Cc1ccccc1)c1ccccc1)N1CCCC1 (stereo not given) only.
Completion: 93.5

Prompt: State, in one line, measured percent of DMSO control GFP of `O=C(NCc1ccc(N2CCCC2=O)cc1)c1cccc(Cl)c1`
Completion: 102

Prompt: Supply measured percent of DMSO control GFP of `O=C(O)[C@H](Cc1ccccc1)NC(=O)N1CCC(Cc2ccccc2)CC1` in your reply.
Completion: 104

Prompt: For `Nc1ccc(S(=O)(=O)NC(=O)c2ccccc2)cc1` , write its percent of DMSO control GFP.
Completion: 100

Prompt: Give reported percent of DMSO control GFP value for Cc1onc(-c2c(Cl)cccc2Cl)c1C(=O)NC1C(=O)N2C1SC(C)(C)C2C(=O)O (stereo not given)
Completion: 99.7

Prompt: Output measured percent of DMSO control GFP for this item: `C[C@H](CCC(=O)O)[C@H]1CC[C@H]2[C@@H]3C(=O)C[C@@H]4CC(=O)CC[C@]4(C)[C@H]3CC(=O)[C@]12C`
Completion: 99.3

Prompt: Answer with reported percent of DMSO control GFP of `Nc1ccc(S(N)(=O)=O)cc1N`
Completion: 98.1

Prompt: Give the reported percent of DMSO control GFP for this compound. COc1ccc(C2NC(C(=O)O)Cc3c2[nH]c2ccccc32)cc1CN1CCN(c2ccc(F)cc2)CC1 (stereo not given)
Completion: 104

Prompt: In one line, give reported percent of DMSO control GFP of the entry `CCCCNc1ccc(C(=O)OCCN(C)C)cc1` .
Completion: 101

Prompt: Please report the measured percent of DMSO control GFP for `COc1cc(C(=O)N/C(=C\c2cn(C)c3ccccc23)C(=O)NCCCO)cc(OC)c1OC`
Completion: 102

Prompt: Return percent of DMSO control GFP (reported value) for this compound: `CC[C@H]1CN2CCc3cc(OC)c(OC)cc3[C@@H]2C[C@@H]1C[C@H]1NCCc2cc(OC)c(OC)cc21`
Completion: 110

Prompt: Write down percent of DMSO control GFP measured for item CC(C)CC1c2[nH]c3ccccc3c2CCN1C(=O)CCC(=O)N(C)C (stereo not given)
Completion: 90.9

Prompt: Note percent of DMSO control GFP for the compound shown: COc1ccc(C2CC(c3c(O)cc(C)oc3=O)=NCCS2)c(OC)c1 (stereo not given)
Completion: 102

Prompt: # return recorded percent of DMSO control GFP for input `CC(C)CCNC(=O)[C@H](CC(C)C)NC(=O)[C@H]1O[C@@H]1C(=O)O`
Completion: 108

Prompt: Look up and report measured percent of DMSO control GFP for this entry: CC(C)(C)OC(=O)N1CC(O)CC1C(=O)OCC(=O)c1ccc(Cl)cc1 (stereo not given)
Completion: 105

Prompt: Give the reported value of percent of DMSO control GFP for this record: NS(=O)(=O)c1cc2c(cc1Cl)NC(C(Cl)Cl)NS2(=O)=O (stereo not given)
Completion: 100

Prompt: Note down percent of DMSO control GFP recorded for `NC(N)=NC(=O)Cc1c(Cl)cccc1Cl`
Completion: 103

Prompt: Please report the measured percent of DMSO control GFP for `COc1cc2c(cc1OC)C(c1ccccc1)=NCC2`
Completion: 92.2

Prompt: Supply percent of DMSO control GFP value. Item: CC(=O)N1CCN2C(=O)C1CCCC(=O)c1cc(C(C)C)ccc12 (stereo not given)
Completion: 99.5

Prompt: Supply measured percent of DMSO control GFP of COc1cc(C2Nc3ccccc3C(=O)N2c2ccccc2)ccc1O (stereo not given) in your reply.
Completion: 109

Prompt: Read the entry Cc1ccc(S(=O)(=O)N2CCC(C(=O)N[C@@H](C)C(=O)NC3CCS(=O)(=O)C3)CC2)cc1 (stereo not given in full) and write its reported percent of DMSO control GFP.
Completion: 101

Prompt: Specify measured percent of DMSO control GFP for Nc1nc(SCc2ccc([N+](=O)[O-])cc2)c2ncn(C3OC(CO)C(O)C3O)c2n1 (stereo not given) .
Completion: 108

Prompt: Please give measured percent of DMSO control GFP of the following entry: Cc1ccc2nc(C)c3c(c2c1)OC(C(C)(Cl)Br)C3 (stereo not given)
Completion: 102

Numbers sourced from PubChem BioAssay.
